- assay-notes: protein stability index of a GFP-peptide fusion (GPS, HEK-293T) (PSI 1-6); higher = more stable;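 further: 24-mer peptide tiles fused after GFP, lentivirally expressed, FACS-sorted into six equal bins by GFP/DsRed ratio, decoded by Illumina sequencing, PSI is the read-weighted mean bin number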
- test-settings: treatment: MLN4924 1 uM, 8 h; c terminus: a fixed tail appended
Kind request: treat 4 as inclusive, so protein stability index at 4 or higher is True, anything lower is False.

Answered examples (5):
Lookup: Decide: is the reported value of protein stability index for KDTDLARVRRFQVVEVTKGILEHV [M1AP] equal to or greater than 4?
Found: False

Lookup: Moving on to the next sequence: QLRKQKKKTGKSSTTALGDKQRKA [ELOA2]
Found: True

Lookup: PQYTIRCRPLQFQPSKSHKKVLKK [ATE1] ?
Found: False

Lookup: // same read-out, input: QVLNETRSQYEALVETNRREVEQW [KRT34]
Found: True

Lookup: Then MNKGDTEVMKCIVEVISDTLSKPS [CHGA] ?
Found: False

---
Lookup: Could you please find out whether AGGNSSSSAAMQSSCSSTSGGGGG [CCDC6] has protein stability index that meets 4 or exceeds it?
Found: True

----------
- assay-notes: protein stability index of a GFP-peptide fusion (GPS, HEK-293T) (PSI 1-6); higher = more stable
- test-settings: treatment: MLN4924 1 uM, 8 h; c terminus: a fixed tail appended
// protein stability index lookup, one value per entry
API note: the answer field is a bare number with no unit suffix.

Consider the worked cases shown below.
Lookup: Can you look up the measured protein stability index of SEKETMQFLNDRLASYLEKVRQLE [KRT33B] for me?
Found: 2.66

Lookup: Then this sequence: DIETACKLLNITADPMDWSPSNVQ [SPDEF]
Found: 2.77

Next:
Lookup: Looking for the measured protein stability index of TLLSVLKREAGNLTKATAPDQKSS [SSNA1] , can you help?
Found: 2.83

Lookup: Now try RGLSQNLFSNSDHQRDGTLGALHT [SASS6] .
Found: 3.81

Lookup: Now give it for PECGEIFAHSSNLLRHQRIHTGER [ZNF263] too.
Found: 3.91

----------
- assay-notes: protein stability index of a GFP-peptide fusion (GPS, HEK-293T) (PSI 1-6); higher = more stable
- test-settings: treatment: MLN4924 1 uM, 8 h; c terminus: a fixed tail appended
measurement-kind: protein stability index

Guide cases for protein stability index, answers given:
Lookup: Dear colleague, I am looking for the recorded protein stability index of the following sequence: WRNIILMSLLHLGALYGITLIPTC [SCD]
Found: 2.9

Lookup: Proceed to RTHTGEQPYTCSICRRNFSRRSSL [ZNF75A]
Found: 3.67

Lookup: Would you kindly repeat that for EEHGLQQERPRPEPGRLGSSSPAS [PXN] ?
Found: 5.1

Continuing:
Lookup: Report protein stability index for RNQTQVLRQQQDEAYLASLRADQE [FAF2] please.
Found: 5.17

Lookup: Quick one: YNKPTDDIVLMAQALEKIFLQKVA [BRD3]
Found: 2.06

Lookup: Another sequence: TRLLLQFTQPQQTSFALERNLRTQ [C8orf76]
Found: 2.52

Lookup: Same question for QSCWAFLPDLCLCRVFWWLGDRDR [FBXO39] please.
Found: 2.27

Lookup: Same read-out for CHHGLVADSLQASMEKDATLNVDR [DLC1] ?
Found: 4.47

Lookup: Also check RSELVEGCGWRCPEHGDRVAELFC [TRIM14]
Found: 3.04
